tested on: rumen fluid; test: in vitro ruminal fermentation, 22 muramidases, 12 h (Example 4); parameters: species or system cow; settings: sum of VFA after 12 h; muramidase 0.20 mg/40 ml

Molecule	Total VFA
Z: mature muramidase polypeptide from Penicillium wellingtonense, novel MUR polypeptide; Z in Example 4 (protein, Penicillium wellingtonense) YPITGDVVNCRSGPGTTYDVVKSYKLNADVSITCQAPGTDVKGDSVWDKTADGCYVADYYVKTGSSSYVTTKCGGDDDGGDNDGGSSGNLPGLTSTQSKHAKDIIAEAKSEDLGRQGCLAGIATAIVESNILIYANSGVPESLKYPHDAVGSDHDSVGIFQQRAMFYKDIAADMDAGKSAGQFFGKMKAVSGWKSMDVGTLCQKVQGSAYPSRYAEQVSKAEKICKAGGL	96 mmol/L
